# assayProtocol: Cell Viability - Mesenchymal (AID 546);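 further: cells exposed to compound for 40 hours before reading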
# statedConditions: mesenchymal cells viability, qHTS
Records with an inconclusive call do not appear. The source made the active and inactive calls. The call rests on the fitted dose curve; in most records, active means well fitted cell-killing curve with a large enough effect; inconclusive means small, poorly fitted or top-dose-only effect; inactive means flat fitted curve, though single readings scatter.
Respond with a class label; see active, inactive

Query block: What was the test verdict on "CN=C(NC#N)NCCSCc1nc[nH]c1C" ?
Result block: inactive

Query block: Please let me know the test result on file for "Nc1nc(N)c2nc(-c3ccccc3)c(N)nc2n1" .
Result block: active

Query block: Which outcome did this test record for the molecule "COc1cc(Cc2cnc(N)nc2N)cc(OC)c1OC" ?
Result block: inactive

Query block: Could you please tell me the result logged for "CCCCNC(=O)NS(=O)(=O)c1ccc(C)cc1" in this assay?
Result block: inactive

Query block: Test call, this molecule: "CCCCOCCOCCOCc1cc2c(cc1CCC)OCO2"
Result block: inactive
